Could you please report measured GI50 for the items listed next?
# ASSAY SYSTEM: Ba/F3 ERBB2 YVMA (Homo sapiens, UniProt P04626, DUP772-775, cells depend on it)
# Sequence (P04626 with tags, fused parts or gaps DUP772-775): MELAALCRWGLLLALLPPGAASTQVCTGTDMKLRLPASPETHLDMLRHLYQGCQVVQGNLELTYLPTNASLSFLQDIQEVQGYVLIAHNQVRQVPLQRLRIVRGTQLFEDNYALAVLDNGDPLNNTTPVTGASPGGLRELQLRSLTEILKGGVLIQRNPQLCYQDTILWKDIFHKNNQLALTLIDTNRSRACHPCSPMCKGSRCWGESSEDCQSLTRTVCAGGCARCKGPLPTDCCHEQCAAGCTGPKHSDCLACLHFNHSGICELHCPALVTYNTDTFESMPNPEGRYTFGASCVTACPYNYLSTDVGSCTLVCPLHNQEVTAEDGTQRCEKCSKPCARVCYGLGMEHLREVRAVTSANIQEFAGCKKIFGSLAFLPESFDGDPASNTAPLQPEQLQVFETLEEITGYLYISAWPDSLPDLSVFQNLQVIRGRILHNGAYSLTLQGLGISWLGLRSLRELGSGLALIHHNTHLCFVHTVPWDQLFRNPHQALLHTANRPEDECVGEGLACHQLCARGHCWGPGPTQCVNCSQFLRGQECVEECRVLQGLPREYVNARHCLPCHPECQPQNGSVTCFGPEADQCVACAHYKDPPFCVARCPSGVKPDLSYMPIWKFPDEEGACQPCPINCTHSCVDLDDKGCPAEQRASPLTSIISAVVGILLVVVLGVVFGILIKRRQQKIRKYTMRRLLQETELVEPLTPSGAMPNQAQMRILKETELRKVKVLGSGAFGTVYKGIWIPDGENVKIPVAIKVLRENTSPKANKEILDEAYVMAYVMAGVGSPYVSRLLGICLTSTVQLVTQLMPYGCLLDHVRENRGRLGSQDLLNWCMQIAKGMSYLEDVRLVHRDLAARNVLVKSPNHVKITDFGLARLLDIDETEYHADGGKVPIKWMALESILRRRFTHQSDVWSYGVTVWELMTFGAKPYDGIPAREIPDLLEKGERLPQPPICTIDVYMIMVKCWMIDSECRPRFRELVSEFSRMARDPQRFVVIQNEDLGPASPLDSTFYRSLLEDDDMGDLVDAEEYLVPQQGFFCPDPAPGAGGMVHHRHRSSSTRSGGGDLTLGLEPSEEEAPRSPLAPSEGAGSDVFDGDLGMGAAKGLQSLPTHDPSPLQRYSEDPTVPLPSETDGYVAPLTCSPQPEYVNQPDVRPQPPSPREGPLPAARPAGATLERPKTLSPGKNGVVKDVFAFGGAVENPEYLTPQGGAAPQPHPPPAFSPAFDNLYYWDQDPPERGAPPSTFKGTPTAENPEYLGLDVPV
# TEST METHOD NOTES: Cell viability assay (CellTiter Glo), Ba/F3 cells engineered to express ERBB2 YVMA
# Format: cell-based, mouse
# SETUP CONDITIONS: Ba/F3 cells expressing human ERBB2 YVMA mutant, 72 hours, read-out: Ba/F3 ERBB2 YVMA, IC50
Numbers only, in µM.

Cc1cc(Nc2ncnc3cnc4c(c23)OC[C@H]2CNCCN42)ccc1Oc1ccc2c(c1)ncn2C; 0.17

Read the next record carefully.
Recorded GI50 of Cc1ccc(Oc2ccc(Nc3ncnc4ccc5c(c34)OC[C@H]3CN5CCN3C(=O)/C=C/CN(C)C)cc2C)cn1 , please. 0.00295

---

Record form. Attribute: IC50. Fill in for each entry.
# ASSAY SYSTEM: phosphorylated ERBB2 (pERBB2) (Homo sapiens)
# Construct: endogenous in cells
# Sequence (P04626 23-1255): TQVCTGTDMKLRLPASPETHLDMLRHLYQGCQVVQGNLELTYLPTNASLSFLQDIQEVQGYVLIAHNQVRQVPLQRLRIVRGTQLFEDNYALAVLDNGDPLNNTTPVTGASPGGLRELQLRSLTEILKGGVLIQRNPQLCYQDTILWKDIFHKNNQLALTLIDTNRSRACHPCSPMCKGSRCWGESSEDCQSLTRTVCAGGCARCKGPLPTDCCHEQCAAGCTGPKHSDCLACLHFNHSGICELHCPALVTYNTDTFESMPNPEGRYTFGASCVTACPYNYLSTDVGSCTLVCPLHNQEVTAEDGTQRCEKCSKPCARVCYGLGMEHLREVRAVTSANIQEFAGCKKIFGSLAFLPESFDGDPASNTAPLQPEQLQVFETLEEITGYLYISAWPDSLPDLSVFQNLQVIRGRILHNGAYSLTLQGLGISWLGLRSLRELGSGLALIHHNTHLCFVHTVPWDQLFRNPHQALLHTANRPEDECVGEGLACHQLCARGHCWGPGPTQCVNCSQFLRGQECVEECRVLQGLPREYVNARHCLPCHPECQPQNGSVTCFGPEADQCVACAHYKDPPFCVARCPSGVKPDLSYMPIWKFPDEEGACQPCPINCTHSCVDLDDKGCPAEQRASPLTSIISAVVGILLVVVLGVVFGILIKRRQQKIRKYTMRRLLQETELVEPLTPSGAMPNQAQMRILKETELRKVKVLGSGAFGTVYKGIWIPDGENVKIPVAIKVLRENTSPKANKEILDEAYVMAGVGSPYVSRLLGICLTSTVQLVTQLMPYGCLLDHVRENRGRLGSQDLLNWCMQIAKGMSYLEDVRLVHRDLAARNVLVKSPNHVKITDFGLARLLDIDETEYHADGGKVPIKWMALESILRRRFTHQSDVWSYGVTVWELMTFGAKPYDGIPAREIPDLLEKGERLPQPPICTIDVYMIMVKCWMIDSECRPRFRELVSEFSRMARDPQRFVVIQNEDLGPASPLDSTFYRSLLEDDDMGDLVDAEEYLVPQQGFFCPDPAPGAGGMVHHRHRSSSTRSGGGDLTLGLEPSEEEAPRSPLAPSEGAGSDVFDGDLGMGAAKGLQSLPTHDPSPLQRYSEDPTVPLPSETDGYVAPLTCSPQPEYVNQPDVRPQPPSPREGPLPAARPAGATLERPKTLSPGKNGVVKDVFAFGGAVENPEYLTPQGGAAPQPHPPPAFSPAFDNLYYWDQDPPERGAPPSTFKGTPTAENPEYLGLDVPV
# TEST METHOD NOTES: Detection of phosphorylated ERBB2 (pERBB2) by ELISA in BT-474 cells
# SETUP CONDITIONS: four hour incubation
Phrase the answer as number then unit, nothing more needed.

List IC50 for every entry below, keeping the order given.
1. CN(C)C/C=C/C(=O)N1CCN2c3ccc4ncnc(Nc5cc(F)c(Oc6ccn7ncnc7c6)cc5F)c4c3OC[C@@H]2C1
2. CN(C)C/C=C/C(=O)N1CCN2C[C@@H]1COc1c2ccc2ncnc(Nc3cc(F)c(Oc4ccn5ncnc5c4)cc3F)c12
3. Cc1cc(Nc2ncnc3cnc4c(c23)O[C@H]2CCNC[C@H]2N4C)ccc1Oc1ccc2c(c1)ncn2C
4. Cc1cc(Nc2ncnc3ccc4c(c23)OC[C@@H]2CN4CCN2C)ccc1Oc1ccn2ncnc2c1

["60 nM", "19.1 nM", "307 nM", "195 nM"]

---

# ASSAY SYSTEM: Ba/F3 ERBB2 YVMA (Homo sapiens, UniProt P04626, DUP772-775, cells depend on it)
# TEST METHOD NOTES: Cell viability assay (CellTiter Glo), Ba/F3 cells engineered to express ERBB2 YVMA
# Type: cell-based, mouse
# SETUP CONDITIONS: Ba/F3 cells expressing human ERBB2 YVMA mutant, 72 hours, read-out: Ba/F3 ERBB2 YVMA, IC50
ASSAY METRIC: GI50 (nM)
One number for each entry, in nM.

Solved cases below.
Cc1cc(Nc2ncnc3cnc4c(c23)OC[C@H]2CN4CCN2C(=O)/C=C/CN(C)C)ccc1Oc1ccn2ncnc2c1 [Compound 82]; 6.9
Cc1cc(Nc2ncnc3ccc4c(c23)O[C@@H]2CCN(C)C[C@@H]2N4C)ccc1Oc1ccc2c(c1)ncn2C [Compound 123]; 46.4
Cc1cc(Nc2ncnc3cnc4c(c23)O[C@@H]2CCNC[C@H]2N4C)ccc1Oc1ccc2c(c1)ncn2C [Compound 135]; 88.9
Cc1cc(Nc2ncnc3ccc4c(c23)OC[C@H]2CN4CCN2C(=O)/C=C/CN(C)C)ccc1Oc1ccn2ncnc2c1 [Compound 27]; 7.69
Cc1cc(Nc2ncnc3cnc4c(c23)OC[C@@H]2CN(C(=O)/C=C/CN(C)C)CCN42)ccc1Oc1ccn2ncnc2c1 [Compound 112]; 13.3

Here is another compound to look at.
Recorded GI50 of Cc1cc(Nc2ncnc3cnc4c(c23)OC[C@H]2CN(C(=O)/C=C/CN(C)C)CCN42)ccc1Oc1ccn2ncnc2c1 [Compound 113] , please. 3.57

---

# ASSAY SYSTEM: phosphorylated ERBB2 (pERBB2) (Homo sapiens)
# Construct: endogenous in cells; host or cells: BT-474
# TEST METHOD NOTES: Detection of phosphorylated ERBB2 (pERBB2) by ELISA in BT-474 cells
# Assay type: cell-based
# SETUP CONDITIONS: four hour incubation
ASSAY METRIC: IC50 (µM)
Give bare numbers, in µM.

Illustrative cases are given below, each with its answer.
Cc1cc(Nc2ncnc3cc4c(cc23)N2CCN(C)C[C@@H]2CO4)ccc1Oc1ccc2c(c1)ncn2C; 0.223
Cc1cc(Nc2ncnc3ccc4c(c23)OC[C@@H]2CN(C(=O)/C=C/CN(C)C)CCN42)ccc1Oc1ccc2c(c1)ncn2C; 0.0274

In the following, a different molecule is considered.
Any idea what its IC50 is? The molecule is Cc1cc(Nc2ncnc3ccc4c(c23)OC[C@H]2CN4CCN2C(=O)/C=C/[C@@H](C)N(C)C)c(F)cc1Oc1ccn2ncnc2c1 0.0504

---

# ASSAY SYSTEM: phosphorylated EGFR (pEGFR) (Homo sapiens)
# Construct: performed to measure phosphorylated EGFR levels using A431 cells (10% FBS); endogenous in cells
# TEST METHOD NOTES: Detection of phosphorylated EGFR (pEGFR) by AlphaLISA in EGF-stimulated A431 cells
# SETUP CONDITIONS: A431 cells (10% FBS), 4 hours incubation, EGF 30 ng/mL for 10 minutes
ASSAY METRIC: IC50 (µM)
One number for each entry, in µM.

Guide cases for IC50, answers given:
CN(C)C/C=C/C(=O)N1CCN2c3ccc4ncnc(Nc5ccc(Oc6ccn7ncnc7c6)c(F)c5)c4c3OC[C@H]2C1 [Compound 118]; 3.12
Cc1cc(Nc2ncnc3cc4c(cc23)N2CCN(C(=O)/C=C/CN(C)C)C[C@@H]2CO4)ccc1Oc1ccc2c(c1)ncn2C [Compound 12]; 2.84

IC50 lookup needed for Cc1cc(Nc2ncnc3ccc4c(c23)OC[C@H]2CN4CCN2C(=O)/C=C/C2(F)CN(C)C2)ccc1Oc1ccn2ncnc2c1 [Compound 81] , thanks. 0.785

---

For each of the molecules below, state its GI50.
# ASSAY SYSTEM: Ba/F3 ERBB2 YVMA (Homo sapiens, UniProt P04626, DUP772-775, cells depend on it)
# TEST METHOD NOTES: Cell viability assay (CellTiter Glo), Ba/F3 cells engineered to express ERBB2 YVMA
# Type: cell-based, mouse
# SETUP CONDITIONS: Ba/F3 cells expressing human ERBB2 YVMA mutant, 72 hours, read-out: Ba/F3 ERBB2 YVMA, IC50

Below: 2 molecules and their reported GI50.
C=CC(=O)N1CCN2C[C@H]1COc1c2ccc2ncnc(Nc3ccc(Oc4ccc5c(c4)ncn5C)c(C)c3)c12 [Compound 28]; > 500 nM
Cc1cc(Nc2ncnc3ccc4c(c23)OC[C@H]2CN4CCN2)ccc1Oc1ccn2ncnc2c1 [Compound 51]; > 500 nM

Kindly consider the entry below.
Tell me the measured GI50 of Cc1cc(Nc2ncnc3ccc4c(c23)OC[C@@H]2CN4CCN2C(=O)/C=C/CN(C)C)ccc1Oc1ccn2ncnc2c1 [Compound 26] , please. > 500 nM

---

# ASSAY SYSTEM: phosphorylated EGFR (pEGFR) (Homo sapiens, UniProt P00533)
# Construct: performed to measure phosphorylated EGFR levels using A431 cells (10% FBS); endogenous in cells; host or cells: A431
# Sequence (P00533 25-1210): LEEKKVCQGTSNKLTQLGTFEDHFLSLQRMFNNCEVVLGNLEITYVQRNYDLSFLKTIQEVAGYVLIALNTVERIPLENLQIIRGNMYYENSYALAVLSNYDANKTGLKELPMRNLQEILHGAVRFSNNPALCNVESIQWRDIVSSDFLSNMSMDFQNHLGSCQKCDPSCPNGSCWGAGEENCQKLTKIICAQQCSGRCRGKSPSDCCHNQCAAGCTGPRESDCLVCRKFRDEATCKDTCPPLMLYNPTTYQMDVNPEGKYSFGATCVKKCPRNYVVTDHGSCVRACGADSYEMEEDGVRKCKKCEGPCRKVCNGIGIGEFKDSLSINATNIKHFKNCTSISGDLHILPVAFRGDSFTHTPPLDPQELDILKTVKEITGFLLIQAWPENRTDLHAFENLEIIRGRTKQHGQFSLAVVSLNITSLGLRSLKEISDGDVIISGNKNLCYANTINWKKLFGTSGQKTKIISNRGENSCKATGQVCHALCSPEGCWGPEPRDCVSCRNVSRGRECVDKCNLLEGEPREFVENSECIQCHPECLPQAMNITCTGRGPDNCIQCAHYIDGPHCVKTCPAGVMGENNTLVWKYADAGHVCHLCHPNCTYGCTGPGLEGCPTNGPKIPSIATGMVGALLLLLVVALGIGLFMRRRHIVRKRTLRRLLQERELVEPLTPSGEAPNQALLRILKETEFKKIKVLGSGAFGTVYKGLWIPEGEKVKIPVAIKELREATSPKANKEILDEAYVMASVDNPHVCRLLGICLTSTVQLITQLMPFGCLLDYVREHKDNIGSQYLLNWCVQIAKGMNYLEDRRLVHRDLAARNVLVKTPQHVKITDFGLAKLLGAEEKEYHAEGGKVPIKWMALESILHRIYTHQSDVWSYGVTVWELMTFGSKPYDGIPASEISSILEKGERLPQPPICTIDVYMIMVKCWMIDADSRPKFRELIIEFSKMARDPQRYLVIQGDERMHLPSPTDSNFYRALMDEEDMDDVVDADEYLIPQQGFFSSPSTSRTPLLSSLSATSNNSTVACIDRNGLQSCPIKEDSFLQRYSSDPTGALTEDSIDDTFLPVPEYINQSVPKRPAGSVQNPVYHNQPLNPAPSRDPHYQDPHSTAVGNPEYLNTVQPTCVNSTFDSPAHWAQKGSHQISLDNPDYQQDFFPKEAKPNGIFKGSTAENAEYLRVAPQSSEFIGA
# TEST METHOD NOTES: Detection of phosphorylated EGFR (pEGFR) by AlphaLISA in EGF-stimulated A431 cells
# Type: cell-based
# SETUP CONDITIONS: A431 cells (10% FBS), 4 hours incubation, EGF 30 ng/mL for 10 minutes
ASSAY METRIC: IC50

Past entries and their recorded results:
Cc1cc(Nc2ncnc3cc4c(nc23)N2CCNC[C@@H]2CO4)ccc1Oc1ccn2ncnc2c1; > 10 µM
Cc1cc(Nc2ncnc3ccc4c(c23)O[C@@H]2CCN(C)C[C@@H]2N4C)ccc1Oc1ccc2c(c1)ncn2C [Compound 129]; > 10 µM

--- query ---
Give its IC50 value. Item: Cc1cc(Nc2ncnc3ccc4c(c23)OC[C@@H]2CN4CCN2)ccc1Oc1ccn2ncnc2c1 > 10 µM
